System: KRAS patient-derived spheroids with HUVEC/MSC, viability
assay-procedure: Anticancer human tumor 323965-272-R-J2-PDC patient-derived pancreatic carcinoma cell line growth inhibition [KRAS2]
condition-label: second compound 0.1 µM; first compound 1 µM; active compounds read low
Kindly supply the reported viability, T/C values for the records listed here.
// return numeric value only (unit: %, not printed)

Enquiry: viability, T/C for COc1cc(Nc2ncc3c(n2)-c2ccc(Cl)cc2C(c2c(F)cccc2OC)=NC3)ccc1C(=O)O + COc1cc2nc(C)nc(NC(C)c3cc(N)cc(C(F)(F)F)c3)c2cc1OC1CCOC1 ?
Return: 44.1

Enquiry: Try this compound next: CCNC(=O)CC1N=C(c2ccc(Cl)cc2)c2cc(OC)ccc2-n2c(C)nnc21 (stereo unspecified) + C=CC(=O)N1CCN(c2nc(OCC3CCCN3C)nc3c2CCN(c2cccc4cccc(C)c24)C3)CC1CC#N
Return: 31.9

Enquiry: Try this compound next: COc1cc2nccc(Oc3ccc(NC(=O)C4(C(=O)Nc5ccc(F)cc5)CC4)cc3)c2cc1OC + CNCc1ccccc1-c1csc(C(C)Nc2nc(C)nc3cc(OC)c(OC)cc23)c1
Return: 101

Enquiry: Try this compound next: CC(C)NCC(C(=O)N1CCN(c2ncnc3c2C(C)CC3O)CC1)c1ccc(Cl)cc1 (stereo unspecified) + CC1OCC2(CCN(c3cnc(Sc4ccnc(N)c4Cl)c(N)n3)CC2)C1N
Return: 44.9

Enquiry: Try this compound next: CC(C)NCC(C(=O)N1CCN(c2ncnc3c2C(C)CC3O)CC1)c1ccc(Cl)cc1 (stereo unspecified) + CNCc1ccccc1-c1csc(C(C)Nc2nc(C)nc3cc(OC)c(OC)cc23)c1
Return: 55.8

Enquiry: Try this compound next: Cn1nccc1Nc1nccc(-c2cc3c(s2)C(C)(C)N(CCN2CCOCC2)C3=O)n1 + COc1cc2nc(C)nc(NC(C)c3cc(N)cc(C(F)(F)F)c3)c2cc1OC1CCOC1
Return: 38.7

* * *

Kindly supply the reported viability, T/C values for the records listed here.
Tested on: KRAS patient-derived spheroids with HUVEC/MSC, viability
assay-procedure: Anticancer human tumor 323965-272-R-J2-PDC cell line growth inhibition [KRAS2];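 note: spheroids exposed to agents for 7 days; 100% = DMSO vehicle control viability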
condition-label: second compound 3.16 µM; first compound 0.001 µM; active compounds read low

Enquiry: viability, T/C for CC(=O)Nc1cccc(-n2c(=O)n(C3CC3)c(=O)c3c(Nc4ccc(I)cc4F)n(C)c(=O)c(C)c32)c1 + C=CC(=O)N1CCN(c2nc(OCC3CCCN3C)nc3c2CCN(c2cccc4cccc(C)c24)C3)CC1CC#N ?
Return: 17%

Enquiry: Try this molecule next: Cn1ncnc1[C@H]1c2n[nH]c(=O)c3cc(F)cc(c23)N[C@@H]1c1ccc(F)cc1 + C=CC(=O)N1CCN(c2nc(=O)n(-c3c(C)ccnc3C(C)C)c3nc(-c4c(O)cccc4F)c(F)cc23)C(C)C1
Return: 65.6%

Enquiry: Try this molecule next: CC(=O)Nc1cccc(-n2c(=O)n(C3CC3)c(=O)c3c(Nc4ccc(I)cc4F)n(C)c(=O)c(C)c32)c1 + CNCc1ccccc1-c1csc(C(C)Nc2nc(C)nc3cc(OC)c(OC)cc23)c1
Return: 77.6%

Enquiry: Try this molecule next: CC(C)n1nc(-c2ccc3oc(N)nc3c2)c2c(N)ncnc21 + COc1cc2nc(C)nc(NC(C)c3cc(N)cc(C(F)(F)F)c3)c2cc1OC1CCOC1
Return: 49.4%

Enquiry: Try this molecule next: Cn1ncnc1[C@H]1c2n[nH]c(=O)c3cc(F)cc(c23)N[C@@H]1c1ccc(F)cc1 + CC1OCC2(CCN(c3cnc(Sc4ccnc(N)c4Cl)c(N)n3)CC2)C1N
Return: 32%

Enquiry: Try this molecule next: CN(C)C/C=C/C(=O)Nc1cc2c(Nc3ccc(F)c(Cl)c3)ncnc2cc1O[C@H]1CCOC1 + C=CC(=O)N1CCN(c2nc(OCC3CCCN3C)nc3c2CCN(c2cccc4cccc(C)c24)C3)CC1CC#N
Return: 34.9%

Enquiry: Try this molecule next: CC(C)n1nc(-c2ccc3oc(N)nc3c2)c2c(N)ncnc21 + CNCc1ccccc1-c1csc(C(C)Nc2nc(C)nc3cc(OC)c(OC)cc23)c1
Return: 76%

Enquiry: Try this molecule next: CC(=O)Nc1cccc(-n2c(=O)n(C3CC3)c(=O)c3c(Nc4ccc(I)cc4F)n(C)c(=O)c(C)c32)c1 + CC1OCC2(CCN(c3cnc(Sc4ccnc(N)c4Cl)c(N)n3)CC2)C1N
Return: 21.7%

Enquiry: Try this molecule next: CC(C)n1nc(-c2ccc3oc(N)nc3c2)c2c(N)ncnc21 + CC1OCC2(CCN(c3cnc(Sc4ccnc(N)c4Cl)c(N)n3)CC2)C1N
Return: 27%

Enquiry: Try this molecule next: CC(C)n1nc(-c2ccc3oc(N)nc3c2)c2c(N)ncnc21 + C=CC(=O)N1CCN(c2nc(OCC3CCCN3C)nc3c2CCN(c2cccc4cccc(C)c24)C3)CC1CC#N
Return: 9.51%

Enquiry: Try this molecule next: CC(C)n1nc(-c2ccc3oc(N)nc3c2)c2c(N)ncnc21 + C=CC(=O)N1CCN(c2nc(=O)n(-c3c(C)ccnc3C(C)C)c3nc(-c4c(O)cccc4F)c(F)cc23)C(C)C1
Return: 41.9%

* * *

System: KRAS patient-derived spheroids with HUVEC/MSC, viability
assay-procedure: Anticancer human tumor 323965-272-R-J2-PDC cell line growth inhibition [KRAS2];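 note: spheroids exposed to agents for 7 days; 100% = DMSO vehicle control viability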
condition-label: second compound 10 µM; first compound 0.00316 µM; active compounds read low
measurement-name: viability, T/C

Enquiry: viability, T/C for CN(C)C/C=C/C(=O)Nc1cc2c(Nc3ccc(F)c(Cl)c3)ncnc2cc1O[C@H]1CCOC1 + COc1cc2nc(C)nc(NC(C)c3cc(N)cc(C(F)(F)F)c3)c2cc1OC1CCOC1 ?
Return: 59.3%

Enquiry: Try this molecule next: CCN1CCN(Cc2ccc(Nc3ncc(F)c(-c4cc(F)c5nc(C)n(C(C)C)c5c4)n3)nc2)CC1 + COc1cc2nc(C)nc(NC(C)c3cc(N)cc(C(F)(F)F)c3)c2cc1OC1CCOC1
Return: 86.6%

Enquiry: Try this molecule next: Cn1ncnc1[C@H]1c2n[nH]c(=O)c3cc(F)cc(c23)N[C@@H]1c1ccc(F)cc1 + COc1cc2nc(C)nc(NC(C)c3cc(N)cc(C(F)(F)F)c3)c2cc1OC1CCOC1
Return: 76.8%

Enquiry: Try this molecule next: Cn1ncnc1[C@H]1c2n[nH]c(=O)c3cc(F)cc(c23)N[C@@H]1c1ccc(F)cc1 + C=CC(=O)N1CCN(c2nc(=O)n(-c3c(C)ccnc3C(C)C)c3nc(-c4c(O)cccc4F)c(F)cc23)C(C)C1
Return: 57.4%

Enquiry: Try this molecule next: CC(=O)Nc1cccc(-n2c(=O)n(C3CC3)c(=O)c3c(Nc4ccc(I)cc4F)n(C)c(=O)c(C)c32)c1 + C=CC(=O)N1CCN(c2nc(=O)n(-c3c(C)ccnc3C(C)C)c3nc(-c4c(O)cccc4F)c(F)cc23)C(C)C1
Return: 35.8%

* * *

Kindly supply the reported viability, T/C values for the records listed here.
Test system: KRAS patient-derived spheroids with HUVEC/MSC, viability
assay-procedure: Anticancer human tumor 323965-272-R-J2-PDC cell line growth inhibition [KRAS2];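 note: spheroids exposed to agents for 7 days; 100% = DMSO vehicle control viability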
condition-label: second compound 3.16 µM; first compound 0.1 µM; active compounds read low
// return numeric value only (unit: %, not printed)

Enquiry: viability, T/C for CC(C)NCC(C(=O)N1CCN(c2ncnc3c2C(C)CC3O)CC1)c1ccc(Cl)cc1 (stereo not drawn) + C=CC(=O)N1CCN(c2nc(=O)n(-c3c(C)ccnc3C(C)C)c3nc(-c4c(O)cccc4F)c(F)cc23)C(C)C1 ?
Return: 47.3

Enquiry: Try this compound next: CCNC(=O)CC1N=C(c2ccc(Cl)cc2)c2cc(OC)ccc2-n2c(C)nnc21 (stereo not drawn) + CNCc1ccccc1-c1csc(C(C)Nc2nc(C)nc3cc(OC)c(OC)cc23)c1
Return: 80.7

Enquiry: Try this compound next: CCNC(=O)CC1N=C(c2ccc(Cl)cc2)c2cc(OC)ccc2-n2c(C)nnc21 (stereo not drawn) + C=CC(=O)N1CCN(c2nc(OCC3CCCN3C)nc3c2CCN(c2cccc4cccc(C)c24)C3)CC1CC#N
Return: 6.25

* * *

Test system: KRAS patient-derived spheroids with HUVEC/MSC, viability
assay-procedure: Anticancer human tumor 323965-272-R-J2-PDC cell line growth inhibition [KRAS2];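 note: spheroids exposed to agents for 7 days; 100% = DMSO vehicle control viability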
condition-label: second compound 10 µM; first compound 0.316 µM; active compounds read low
Text: Multicellular complex tumor spheroid response to RAS pathway inhibitors in combination with a targeted agents in patient-derived cell lines with oncogenic KRAS variants from multiple cancer types A high-throughput screen of multi-cell type tumor spheroids was designed to identify active combinations of targeted small molecules and KRAS pathway inhibitors. […] Compounds. […] If the clinical Cmax for an agent had not been determined, the highest concentration tested was 10 microM. […]
Kindly supply the reported viability, T/C values for the records listed here.
// return numeric value only (unit: %, not printed)

Enquiry: viability, T/C for Cn1nccc1Nc1nccc(-c2cc3c(s2)C(C)(C)N(CCN2CCOCC2)C3=O)n1 + CC1OCC2(CCN(c3cnc(Sc4ccnc(N)c4Cl)c(N)n3)CC2)C1N ?
Return: 9.42

Enquiry: Try this compound next: COc1cc2nccc(Oc3ccc(NC(=O)C4(C(=O)Nc5ccc(F)cc5)CC4)cc3)c2cc1OC + C=CC(=O)N1CCN(c2nc(=O)n(-c3c(C)ccnc3C(C)C)c3nc(-c4c(O)cccc4F)c(F)cc23)C(C)C1
Return: 45.5

Enquiry: Try this compound next: COC(=O)c1ccc2c(C(=Nc3ccc(N(C)C(=O)CN4CCN(C)CC4)cc3)c3ccccc3)c(O)[nH]c2c1 + CNCc1ccccc1-c1csc(C(C)Nc2nc(C)nc3cc(OC)c(OC)cc23)c1
Return: 0.33

Enquiry: Try this compound next: O=C(c1cc(Cc2n[nH]c(=O)c3ccccc23)ccc1F)N1CCN(C(=O)C2CC2)CC1 + C=CC(=O)N1CCN(c2nc(=O)n(-c3c(C)ccnc3C(C)C)c3nc(-c4c(O)cccc4F)c(F)cc23)C(C)C1
Return: 60.3

Enquiry: Try this compound next: Cn1nccc1Nc1nccc(-c2cc3c(s2)C(C)(C)N(CCN2CCOCC2)C3=O)n1 + C=CC(=O)N1CCN(c2nc(=O)n(-c3c(C)ccnc3C(C)C)c3nc(-c4c(O)cccc4F)c(F)cc23)C(C)C1
Return: 42.6

Enquiry: Try this compound next: CC(=O)OC12COC1CC(O)C1(C)C(=O)C(O)C3=C(C)C(OC(=O)C(O)C(NC(=O)OC(C)(C)C)c4ccccc4)CC(O)(C(OC(=O)c4ccccc4)C21)C3(C)C (stereo not given) + CNCc1ccccc1-c1csc(C(C)Nc2nc(C)nc3cc(OC)c(OC)cc23)c1
Return: 0.45

Enquiry: Try this compound next: CC(C)NCC(C(=O)N1CCN(c2ncnc3c2C(C)CC3O)CC1)c1ccc(Cl)cc1 (stereo not given) + CNCc1ccccc1-c1csc(C(C)Nc2nc(C)nc3cc(OC)c(OC)cc23)c1
Return: 0.23

Enquiry: Try this compound next: CC1COCCN1c1cc(-c2ccnn2C)c2ccnc(-c3ccn[nH]3)c2n1 (stereo not given) + C=CC(=O)N1CCN(c2nc(=O)n(-c3c(C)ccnc3C(C)C)c3nc(-c4c(O)cccc4F)c(F)cc23)C(C)C1
Return: 13.2

Enquiry: Try this compound next: CC(=O)OC12COC1CC(O)C1(C)C(=O)C(O)C3=C(C)C(OC(=O)C(O)C(NC(=O)OC(C)(C)C)c4ccccc4)CC(O)(C(OC(=O)c4ccccc4)C21)C3(C)C (stereo not given) + COc1cc2nc(C)nc(NC(C)c3cc(N)cc(C(F)(F)F)c3)c2cc1OC1CCOC1
Return: 17.1

Enquiry: Try this compound next: CCN1CCN(Cc2ccc(Nc3ncc(F)c(-c4cc(F)c5nc(C)n(C(C)C)c5c4)n3)nc2)CC1 + CNCc1ccccc1-c1csc(C(C)Nc2nc(C)nc3cc(OC)c(OC)cc23)c1
Return: 0.16
